Exercise: for every item that follows, state its recorded IC50.
molecular target: PDE4B (human recombinant) (Homo sapiens, UniProt Q07343); construct: made in house; experiment: Inhibition of PDE4B activity: radioactive SPA or IMAP Fluorescence Polarisation (FP) assay; type: biochemical; conditions: PDE4B inhibitory activity, one reading or average of ca. 2-6 readings, read-out: PDE4B pIC50 (± about 0.5) (converted)
Sequence (Q07343 1-564 isoform Q07343-2): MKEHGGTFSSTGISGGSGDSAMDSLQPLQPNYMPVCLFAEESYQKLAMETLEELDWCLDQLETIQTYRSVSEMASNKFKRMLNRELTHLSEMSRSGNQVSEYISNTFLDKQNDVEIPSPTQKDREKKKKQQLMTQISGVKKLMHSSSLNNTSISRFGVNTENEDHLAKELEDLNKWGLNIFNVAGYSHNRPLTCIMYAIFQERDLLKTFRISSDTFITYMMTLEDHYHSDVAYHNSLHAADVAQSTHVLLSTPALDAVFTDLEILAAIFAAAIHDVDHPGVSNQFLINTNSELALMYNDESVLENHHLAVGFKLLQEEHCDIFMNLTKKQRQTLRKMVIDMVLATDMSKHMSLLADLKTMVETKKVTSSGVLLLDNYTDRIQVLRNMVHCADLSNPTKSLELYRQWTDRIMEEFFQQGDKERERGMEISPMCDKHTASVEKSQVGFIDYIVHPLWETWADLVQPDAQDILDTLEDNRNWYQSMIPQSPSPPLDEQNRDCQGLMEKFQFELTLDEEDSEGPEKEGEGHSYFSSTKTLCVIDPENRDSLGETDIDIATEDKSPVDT

Ask: Dear colleague, I am looking for the recorded IC50 of the following compound: Cn1ncc2c(NC3CCOCC3)c(C(=O)NCc3ccccc3)cnc21 [Example 63]
Reply: 126 nM

Ask: I would be grateful if you could share the reported IC50 for CCn1ncc2c(NC3CCOCC3)c(C(=O)NCc3ccccc3)c(C)nc21 [Example 196] .
Reply: 12.6 nM

Ask: Fill blank: measured IC50 of the compound CCn1ncc2c(NC3CCOCC3)c(C(N)=O)cnc21 [Example 36] is ____.
Reply: 12.6 to 100 nM

Ask: // lookup IC50 for CCn1ncc2c(NC3CCOCC3)c(C(=O)NCc3cc(Cl)cc(Cl)c3)cnc21 [Example 581]
Reply: 0.1 to 6.31 nM

Ask: Can you share its IC50? I mean this compound: CCOC(=O)c1cnc2c(cnn2CC)c1NC1CCCCC1 [Example 2]
Reply: 10 nM

Ask: # IC50 lookup, item CCn1ncc2c(NC3CCC(=NO)CC3)c(C(=O)NCc3ccc(Cl)cc3C)cnc21 (stereo not drawn) [Example 684]
Reply: 0.1 to 6.31 nM

Ask: IC50 lookup needed for CCn1ncc2c(NC3CCOCC3)c(C(=O)NCc3ccc(C(F)(F)F)cc3)cnc21 [Example 155] , thanks.
Reply: 0.1 to 6.31 nM

Ask: Name the recorded IC50 for CCn1ncc2c(NC3CCOCC3)c(C(=O)NCc3ccccc3OC(F)F)cnc21 [Example 495] .
Reply: 0.1 to 6.31 nM

Ask: May I ask what IC50 has been recorded for CCn1ncc2c(NC3CCOCC3)c(C(=O)NCc3cccc(OC(F)F)c3)cnc21 [Example 498] ?
Reply: 0.1 to 6.31 nM
